# TARGET: T1, human PCSK9 (proprotein convertase subtilisin kexin type 9) (human, UniProt Q8NBP7 31-692)
# T1 construct: Directly immobilized (SPR ProteOn), biotinylated (BLI), or in solution, depending on the assay; also called hPCSK9
# PROTOCOL SUMMARY: FRET, competitor EGFA peptide
ATTRIBUTE MEASURED: EC50
Report the figure along with its unit, number first.

Example entries begin here.
# BINDER, EC50
data = [
    ("2012A04 (designed binder, Anti-PCSK9 Adnectin, His6-tagged) MGVSDVPRDLEVVAATPTSLLISWRPPSNGHGYYRITYGETGGNSPVQEFTVPVNEGTATISGLKPGVDYTITVYAVEFPFKWSGYYHRPISINYRTEIDKPSQHHHHHH", "2.1 nM"),
    ("2451C06 (designed binder, Anti-PCSK9 Adnectin, His6-tagged) MGVSDVPRDLEVVAATPTSLLISWDAPAGAASYGYYRITYGETGGNSPVQEFTVPVSKGTATISGLKPGVDYTITVYAVEFPFPGAGYYHRPISINYRTEIDKPSQHHHHHH", "1.2 nM"),
    ("2382E03 (designed binder, Anti-PCSK9 Adnectin, His6-tagged) MGVSDVPRDLEVVAATPTSLLISWDAPAGDGYGYYRITYGETGGNSPVQEFTVPVSKGTATISGLKPGVDYTITVYAVEFDFPGAGYYHRPISINYRTEIDKPSQHHHHHH", "2.4 nM"),
    ("2381B08 (designed binder, Anti-PCSK9 Adnectin, His6-tagged) MGVSDVPRDLEVVAATPTSLLISWDAPADGGYGYYRITYGETGGNSPVQEFTVPSSKGTATISGLKPGVDYTITVYAVEYTFPGAGYYHRPISINYRTEIDKPSQHHHHHH", "2.6 nM"),
    ("1922G04 (designed binder, Anti-PCSK9 Adnectin, His6-tagged; also called ATI001057; ATI-1057) MGVSDVPRDLEVVAATPTSLLISWRPPSHAYGYYRITYGETGGNSPVQEFTVPIGKGTATISGLKPGVDYTITVYAVEYPWKGSGYYHRPISINYRTEIDKPSQHHHHHH", "1.2 nM"),
    ("1784F03 (designed binder, Anti-PCSK9 Adnectin, His6-tagged) MGVSDVPRDLEVVAATPTSLLISWRPPIHAYGYYRITYGETGGNSPVQEFTVPIVEGTATISGLKPGVDYTITVYAVEYTFKHSGYYHRPISINYRTEIDKPSQHHHHHH", "2.01 nM"),
    ("1923B02 (designed binder, Anti-PCSK9 Adnectin, His6-tagged) MGVSDVPRDLEVVAATPTSLLISWTPPPKGYGYYRITYGETGGNSPVQEFTVPVGEGTATISGLKPGVDYTITVYAVEYTYNGAGYYHRPISINYRTEIDKPSQHHHHHH", "2.3 nM"),
]

For reference, reported EC50 for 2382G04 (designed binder, Anti-PCSK9 Adnectin, His6-tagged) MGVSDVPRDLEVVAATPTSLLISWDAPAGGGYGYYRITYGETGGNSPVQEFTVPSSKGTATISGLKPGVDYTITVYAVEFDFPGAGYYHRPISINYRTEIDKPSQHHHHHH stands at 2.9 nM
